Tested on: Escherichia coli
Assay: in vitro antibacterial evaluation, MIC by broth dilution
Format: cell-based
Settings: strain ATCC 25922; broth dilution, 18 hours at 35° C.
Excerpt: […]
Numbered stars: 1 amine (or outer) side, 2 acyl side, 3 side chain; on linkers, the order of the positions; unused ones are H or OH. Square brackets hold non-standard residues; d marks the D form. Peptide text beside a SMILES is read from it. ξ: configuration not given here. X1 = N=C1NCC(C(O)C(N[*:1])C(=O)[*:2])N1C1OC(CO)C(O)C(O)C1O; X6 = N=C1NCC(CC(N[*:1])C(=O)[*:2])N1C1OC(CO)C(O)C(O)C1O; ξEnduracididine(βξ-OH,4'ξ) = N=C1NCC(C(O)C(N)C(=O)O)N1; Tyr(3-NO2) = N[CH](Cc1ccc(O)c([N+](=O)[O-])c1)C(=O)O; X7 = N=C1NCC(CC(N[*:1])C(=O)[*:2])N1; ξCha(3ξ-Me) = CC(C1CCCCC1)C(N)C(=O)O; ξPhe(βξ-Me) = CC(c1ccccc1)C(N)C(=O)O; Cha = N[CH](CC1CCCCC1)C(=O)O
recorded metric: MIC Escherichia coli (ATCC 25922)

Worked cases, MIC Escherichia coli (ATCC 25922) given:
CC(c1ccccc1)C1NC(=O)CNC(=O)C(CO)NC(=O)C(C(O)C2CNC(=N)N2C2OC(CO)C(O)C(O)C2O)NC(=O)C(C(O)C2CNC(=N)N2)NC(=O)C(Cc2ccc(O)c([N+](=O)[O-])c2)NC1=O (stereo not drawn) [Example 8] (cyclo(G[ξPhe(βξ-Me)][Tyr(3-NO2)][ξEnduracididine(βξ-OH,4'ξ)][X1]S); configuration not given here) ... >128 µg/mL
N=C1NCC(C(O)C2NC(=O)C(CC3CCCCC3)NC(=O)C(CC3CCCCC3)NC(=O)CNC(=O)C(CO)NC(=O)C(C(O)C3CNC(=N)N3C3OC(CO)C(O)C(O)C3O)NC2=O)N1 (stereo not drawn) [Example 52] (cyclo(G[Cha][Cha][ξEnduracididine(βξ-OH,4'ξ)][X1]S); configuration not given here) ... 64 µg/mL
CC(c1ccccc1)C1NC(=O)CNC(=O)C(CO)NC(=O)C(C(O)C2CNC(=N)N2C2OC(CO)C(O)C(O)C2O)NC(=O)C(C(O)C2CNC(=N)N2)NC(=O)C(Cc2ccc(O)c(NC=O)c2)NC1=O (centres unmarked) [Example 18] ... 64 µg/mL
CC(c1ccccc1)C1NC(=O)CNC(=O)C(CO)NC(=O)C(C(O)C2CNC(=N)N2C2OC(CO)C(O)C(O)C2O)NC(=O)C(C(O)C2CNC(=N)N2)NC(=O)C(Cc2ccc3oc(-c4cccc(F)c4)nc3c2)NC1=O (centres unmarked) [Example 30] ... 32 µg/mL
CC(c1ccccc1)C1NC(=O)CNC(=O)C(CO)NC(=O)C(C(O)C2CNC(=N)N2C2OC(CO)C(O)C(O)C2O)NC(=O)C(C(O)C2CNC(=N)N2)NC(=O)C(Cc2ccc3oc(-c4ccccc4OC4OC(CO)C(O)C(O)C4O)nc3c2)NC1=O (centres unmarked) [Example 36] ... >128 µg/mL

Looking up CC(c1ccccc1)C1NC(=O)CNC(=O)C(CO)NC(=O)C(C(O)C2CNC(=N)N2C2OC(CO)C(O)C(O)C2O)NC(=O)C(C(O)C2CNC(=N)N2)NC(=O)C(Cc2ccc3oc(SCC(=O)c4ccccc4)nc3c2)NC1=O (centres unmarked) [Example 48] , I found its MIC Escherichia coli (ATCC 25922) recorded as 32 µg/mL

Looking up CC(C1CCCCC1)C1NC(=O)CNC(=O)C(CO)NC(=O)C(C(O)C2CNC(=N)N2C2OC(CO)C(O)C(O)C2O)NC(=O)C(C(O)C2CNC(=N)N2)NC(=O)C(CC2CCCCC2)NC1=O (stereo not drawn) [Example 53] (cyclo(G[ξCha(3ξ-Me)][Cha][ξEnduracididine(βξ-OH,4'ξ)][X1]S); configuration not given here) , I found its MIC Escherichia coli (ATCC 25922) recorded as 128 µg/mL

Looking up CC(c1ccccc1)C1NC(=O)CNC(=O)C(CO)NC(=O)C(C(O)C2CNC(=N)N2C2OC(CO)C(O)C(O)C2O)NC(=O)C(C(O)C2CNC(=N)N2)NC(=O)C(Cc2ccc(O)c(NC(=S)Nc3cc(C(F)(F)F)cc(C(F)(F)F)c3)c2)NC1=O (centres unmarked) [Example 24] , I found its MIC Escherichia coli (ATCC 25922) recorded as >64 µg/mL

Looking up CC(c1ccccc1)C1NC(=O)CNC(=O)C(CO)NC(=O)C(C(O)C2CNC(=N)N2C2OC(CO)C(O)C(O)C2O)NC(=O)C(C(O)C2CNC(=N)N2)NC(=O)C(Cc2ccc3oc(-c4cccc([N+](=O)[O-])c4)nc3c2)NC1=O (centres unmarked) [Example 26] , I found its MIC Escherichia coli (ATCC 25922) recorded as 64 µg/mL

Looking up CC(c1ccccc1)C1NC(=O)CNC(=O)C(CO)NC(=O)C(C(O)C2CNC(=N)N2C2OC(CO)C(O)C(O)C2O)NC(=O)C(C(O)C2CNC(=N)N2)NC(=O)C(Cc2ccc3oc(-c4ccoc4)nc3c2)NC1=O (centres unmarked) [Example 38] , I found its MIC Escherichia coli (ATCC 25922) recorded as 64 µg/mL

Looking up CC(c1ccccc1)C1NC(=O)CNC(=O)C(CO)NC(=O)C(CC2CNC(=N)N2C2OC(CO)C(O)C(O)C2O)NC(=O)C(CC2CNC(=N)N2)NC(=O)C(Cc2ccc(O)c([N+](=O)[O-])c2)NC1=O (stereo not drawn) [Example 10] (cyclo(G[ξPhe(βξ-Me)][Tyr(3-NO2)][X7][X6]S); configuration not given here) , I found its MIC Escherichia coli (ATCC 25922) recorded as >64 µg/mL
